Test system: SNB-19 CNS
experiment notes: NCI tumour cell line growth inhibition, 48 h
measured parameter: TGI

CC(=O)Oc1ccc2c(c1)c1c(=O)oc(N(C)C)nc1n2Cc1ccccc1    > 100 µM
CC(=O)O[C@H]1C[C@]2(C)C(CCC3O[C@@]32C)[C@@]2(CC(c3ccoc3)OC2O)[C@@H]1C (stereo partly drawn)    > 100 µM
CC(=O)OCC1OC(n2c(N)c(C#N)c(-c3ccccc3)c(C#N)c2=S)C(OC(C)=O)C(OC(C)=O)C1OC(C)=O (stereo not drawn)    > 75.4 µM
CC1C(c2ccc3c(c2)OCO3)c2cc3c(cc2OC1N1CCCC1)OCO3 (stereo not drawn)    > 100 µM
C/C(=N\Nc1ccc([N+](=O)[O-])cc1[N+](=O)[O-])c1ccc2ccccc2n1    94.4 µM

Fill in the blank: the reported TGI of COC(=O)C(CCC1C=CCC1)N=Cc1ccccc1 (stereo not drawn) is ____. > 100 µM

Fill in the blank: the reported TGI of O=C(CSc1nc(=O)[nH]c2nc[nH]c12)Nc1ccccc1 is ____. > 100 µM

Fill in the blank: the reported TGI of COc1cc(OC)c2c(=O)c(O)c(-c3ccc(OC)c(OC)c3)oc2c1 is ____. > 100 µM

Fill in the blank: the reported TGI of COc1ccc2c(c1)c(C1(c3cn(C)c4ccc(OC)cc34)C(=O)Nc3ccc(F)cc31)cn2C is ____. > 100 µM

Fill in the blank: the reported TGI of COC(=O)NCCc1[nH]nc2c1C(=O)C=C(Nc1ccccc1)C2=O is ____. > 100 µM

Fill in the blank: the reported TGI of O=C(c1cc(Cl)cc(Cl)c1)N(C(=S)OC12CC3CC(CC(C3)C1)C2)c1ccccc1 is ____. > 100 µM

Fill in the blank: the reported TGI of O=[N+]([O-])c1ccccc1N=Nc1c(O)[nH]c2ccccc12 is ____. > 100 µM

Fill in the blank: the reported TGI of CCOc1ccc2c(c1)/C(=C(\C(Cl)=C(Cl)Cl)[N+](=O)[O-])N2 is ____. > 100 µM

Fill in the blank: the reported TGI of CCCCCCCCCCCC(=O)OCC1OC(n2cc(F)c(=O)[nH]c2=O)C(N)C(OC(=O)CCCCCCCCCCC)C1O (stereo not drawn) is ____. > 100 µM

Fill in the blank: the reported TGI of NNC(=O)c1c(Cl)c(Cl)c(Cl)c(Cl)c1-c1nc2ccccc2[nH]1 is ____. 88.8 µM

Fill in the blank: the reported TGI of O=C1OC(c2ccc(O)c(Cl)c2)(c2ccc(O)c(Cl)c2)c2ccc(Br)c3cccc1c23 (tested in a mixture with another compound) is ____. 44.4 µM

Fill in the blank: the reported TGI of Cc1cc2[nH]c3c(C#N)c(-c4ccccc4)c(N=Nc4cccc(C(F)(F)F)c4)c(=O)n3c2cc1C is ____. > 100 µM

Fill in the blank: the reported TGI of ClCCN(CCCl)c1ccc(-n2cnc3c(Cl)ncnc32)cc1 is ____. 17.4 µM

Fill in the blank: the reported TGI of COc1cc(/C=C/C(C)=O)ccc1OP(=O)(O)O is ____. > 100 µM

Fill in the blank: the reported TGI of COc1ccc(C(O)CNC(=O)c2ccccc2)cc1 (stereo not drawn) is ____. > 100 µM

Fill in the blank: the reported TGI of O=C(O)/C(=C/c1ccccc1[N+](=O)[O-])c1ccccc1 is ____. > 100 µM

Fill in the blank: the reported TGI of CC(=O)/C=C/C1=C(c2cc3ccccc3s2)c2ccccc2CC1 is ____. > 100 µM
